B1: PKD2L1 (parent)
chain: TLARCAKDILGFAVMFFIVFFAYA

# Variants of: B1
# assayInfo: protein stability index of a GFP-peptide fusion (GPS, HEK-293T) (PSI 1-6); higher = more stable;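 note: lentivirally expressed fusions sorted by FACS into six bins by GFP to DsRed ratio, PSI derived from sequencing read proportions per bin multiplied by bin number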
# settings: c terminus: a fixed tail appended
Condition met means recorded protein stability index is 2 or above; Condition not met means it is below 2.

[[record]]
mutationcode = "A6E"
classlabel = "Condition met"

[[record]]
mutationcode = "F17M"
classlabel = "Condition not met"

[[record]]
mutationcode = "A13S"
classlabel = "Condition not met"

[[record]]
mutationcode = "F20T"
classlabel = "Condition not met"

[[record]]
mutationcode = "C5L"
classlabel = "Condition met"

[[record]]
mutationcode = "V19G"
classlabel = "Condition met"

[[record]]
mutationcode = "A13G"
classlabel = "Condition met"

[[record]]
mutationcode = "R4L"
classlabel = "Condition met"

[[record]]
mutationcode = "C5H"
classlabel = "Condition not met"

[[record]]
mutationcode = "A24P"
classlabel = "Condition met"

[[record]]
mutationcode = "V19M"
classlabel = "Condition met"

[[record]]
mutationcode = "Y23F"
classlabel = "Condition not met"

[[record]]
mutationcode = "A3Y"
classlabel = "Condition met"

[[record]]
mutationcode = "L2D"
classlabel = "Condition met"

[[record]]
mutationcode = "K7P"
classlabel = "Condition met"

[[record]]
mutationcode = "L10N"
classlabel = "Condition not met"

[[record]]
mutationcode = "F12Y"
classlabel = "Condition not met"

[[record]]
mutationcode = "I9Q"
classlabel = "Condition not met"

[[record]]
mutationcode = "D8I"
classlabel = "Condition met"

[[record]]
mutationcode = "L10R"
classlabel = "Condition met"

[[record]]
mutationcode = "K7A"
classlabel = "Condition met"

[[record]]
mutationcode = "A3W"
classlabel = "Condition not met"

